Attribution: PubChem BioAssay (NCATS)

- assay details: OV-SAHO Cancer Cell Toxicity qHTS against the NCATS CANVASS Library (AID 1347348); note: nearly all actives have a fitted effect of over 55% in size
- assay conditions: OV-SAHO viability, CellTiter-Glo luminescence, 72 h; series mostly up to 38.3 µM
Results filed as inconclusive are left out. Calls of active or inactive are those of the source. Calls come from the whole dose curve; as a rule, active = well fitted cell-killing curve with a large enough effect; inconclusive = small, poorly fitted or top-dose-only effect; inactive = flat fitted curve, though single readings scatter.
Output constraint: value belongs to y for active, n for inactive

INSERT INTO measurements (compound, category) VALUES
  ('C[C@@H]1CC[C@@H](c2ccoc2)N2C[C@@]3(CC[C@@H]12)CS[C@@]1(CC[C@H]2[C@H](C)CC[C@@H](c4ccoc4)N2[C@@H]1O)C3', 'y');

*Q* In this assay, the call recorded for CC[C@@H]1CN2CC[C@@]3(O)C(=Nc4cccc(OC)c43)[C@@H]2C[C@@H]1/C(=C\OC)C(=O)OC was what?
*A* n

*Q* Also need CO[C@@H](/C=C/CC/C=C/C(=O)O)[C@@H](O)[C@H](C)/C=C(\C)[C@@H](O)[C@H](C)C(=O)CCCC1CC(=O)NC(=O)C1 , thanks.
*A* n

*Q* Try the compound c1ccc2c3c([nH]c2c1)CNCC3
*A* n
